# Test system: Amaranthus palmeri (AMAPA)
# testSummary: Post-emergence herbicide glasshouse test
# Assay type: in vivo
# conditionDescription: 250 g/ha, evaluated after 13 days, five-point scale
measuredProperty: percentage damage caused to the plant, AMAPA

[
  {
    "compound": "CC(Br)c1nc(C(F)(F)F)nc2cccc(Oc3ncc(Cl)cn3)c12 (centres unmarked)",
    "testSystem": "Amaranthus palmeri (AMAPA)",
    "observedResult": "3 (3=41-60%)"
  },
  {
    "compound": "CC(=O)N1CCC(CCc2nc(C(F)(F)F)nc3cccc(Oc4ncc(Cl)cn4)c23)CC1",
    "testSystem": "Amaranthus palmeri (AMAPA)",
    "observedResult": "4 (4=61-80%)"
  },
  {
    "compound": "CON1CCC(CCc2nc(C(F)(F)F)nc3cccc(Oc4ncc(Cl)cn4)c23)CC1",
    "testSystem": "Amaranthus palmeri (AMAPA)",
    "observedResult": "4 (4=61-80%)"
  },
  {
    "compound": "FC(F)(F)c1nc(CCC=NOCC2CC2)c2c(Oc3ncc(Cl)cn3)cccc2n1 [Compound 1.005]",
    "testSystem": "Amaranthus palmeri (AMAPA)",
    "observedResult": "5 (5=81-100%)"
  },
  {
    "compound": "FC(F)(F)c1nc(CCC2COC2)c2c(Oc3ncc(Cl)cn3)cccc2n1",
    "testSystem": "Amaranthus palmeri (AMAPA)",
    "observedResult": "2 (2=21-40%)"
  },
  {
    "compound": "COCCCc1nc(C(F)(F)F)nc2cccc(Oc3ncc(Cl)cn3)c12",
    "testSystem": "Amaranthus palmeri (AMAPA)",
    "observedResult": "3 (3=41-60%)"
  },
  {
    "compound": "CCO/N=C/CCc1nc(C(F)(F)F)nc2cccc(Oc3ncc(Cl)cn3)c12",
    "testSystem": "Amaranthus palmeri (AMAPA)",
    "observedResult": "5 (5=81-100%)"
  },
  {
    "compound": "FC(F)(F)c1nc(CBr)c2c(Oc3ncc(Cl)cn3)cccc2n1",
    "testSystem": "Amaranthus palmeri (AMAPA)",
    "observedResult": "4 (4=61-80%)"
  }
]
